Origin of the recorded values: patent US20070117743A1

System: HeLa-APL
protocol.details: SRB colorimetric assay of cell growth and viability, HeLa-APL
Assay type: cell-based, human
particulars: 48 hours exposure; read-out: LC50 HELA-APL
For each record, write down the corresponding CC50.
Give the quantity in µM, number only.

Inquiry: I would be grateful if you could share the reported CC50 for C/C=C1\NC(=O)[C@H](Cc2ccccc2)NC(=O)[C@@H](C(C)C)NC(=O)[C@@H]([C@@H](C)CC)NC(=O)[C@H](NC(=O)[C@H](NC(=O)[C@H](CCCN)NC(=O)[C@H]2CCCN2C(=O)[C@H](NC(=O)[C@@H](NC(=O)[C@@H](NC(=O)[C@H]2CCCN2C(=O)CCCC(C)C)[C@@H](C)O)C(C)C)C(C)C)[C@@H](C)CC)[C@@H](C)OC(=O)[C@H](C(C)C)NC1=O [Compound 37, [D-Pro^13]-KF] .
Reply text: 4.55

Inquiry: I would be grateful if you could share the reported CC50 for C/C=C1\NC(=O)[C@H](Cc2ccccc2)NC(=O)[C@@H](C(C)C)NC(=O)[C@@H]([C@@H](C)CC)NC(=O)[C@H](NC(=O)[C@H](NC(=O)[C@H](CCCN)NC(=O)[C@H]2CCCN2C(=O)[C@H](NC(=O)[C@@H](NC(=O)[C@@H](NC(=O)[C@H](NC(=O)c2ccccc2)C(C)C)[C@@H](C)O)C(C)C)C(C)C)[C@@H](C)CC)[C@@H](C)OC(=O)[C@H](C(C)C)NC1=O [Compound 20, [Bza^14]-KF] .
Reply text: 4.27

====

Tested on: LoVo-Dox
protocol.details: SRB colorimetric assay of cell growth and viability, LoVo-Dox
Assay type: cell-based, human
particulars: 48 hours exposure; read-out: LC50 LOVO-DOX
Where a SMILES comes first, the peptide text is derived from it. Bridges are numbered along the chain shown (N, C = ends). [ ]: non-standard residue; d: D form. The star is where a group is joined. d(aIle) = CC[C@H](C)[C@@H](N)C(=O)O; d(aThr) = C[C@@H](O)[C@@H](N)C(=O)O; Hexanoyl(5-Me) = CC(C)CCCC(=O)*; Orn = NCCC[C@H](N)C(=O)O; Dhb = C/C=C(\N)C(=O)O
value.type: CC50 (µM)
Give the quantity in µM, number only.

Inquiry: I would be grateful if you could share the reported CC50 for C/C=C1\NC(=O)[C@H](Cc2ccccc2)NC(=O)[C@@H](C(C)C)NC(=O)[C@@H]([C@@H](C)CC)NC(=O)[C@H](NC(=O)[C@H](NC(=O)[C@H](CCCN)NC(=O)[C@H]2CCCN2C(=O)[C@H](NC(=O)[C@@H](NC(=O)[C@@H](NC(=O)[C@H](NC(=O)CCCC(C)C)C(C)C)C(C)C)C(C)C)C(C)C)[C@@H](C)CC)[C@@H](C)OC(=O)[C@H](C(C)C)NC1=O [Compound 6, [Val^12]-KF] ({Hexanoyl(5-Me)}-[dV]VV[dV][dP][Orn][d(aIle)][d(aThr)][d(aIle)][dV]F[Dhb]V; ester 8-C) .
Reply text: 0.503

Inquiry: I would be grateful if you could share the reported CC50 for C/C=C1\NC(=O)[C@H](Cc2ccccc2)NC(=O)[C@@H](C(C)C)NC(=O)[C@@H]([C@@H](C)CC)NC(=O)[C@H](NC(=O)[C@H](NC(=O)[C@H](CCCN)NC(=O)[C@H]2CCCN2C(=O)[C@H](NC(=O)[C@@H](NC(=O)[C@@H](NC(=O)CNC(=O)CCCC(C)C)[C@@H](C)O)C(C)C)C(C)C)[C@@H](C)CC)[C@@H](C)OC(=O)[C@H](C(C)C)NC1=O [Compound 33, [Gly^13]-KF] .
Reply text: 6.96

====

System: SK-OV-3
protocol.details: SRB colorimetric assay of cell growth and viability, SK-OV-3
Type: cell-based, human
particulars: 48 hours exposure; read-out: LC50 SKOV-3
For each record, write down the corresponding CC50.
Give the quantity in nM, number only.

Inquiry: I would be grateful if you could share the reported CC50 for C/C=C1\NC(=O)[C@H](Cc2ccccc2)NC(=O)[C@@H](C(C)C)NC(=O)[C@@H]([C@@H](C)CC)NC(=O)[C@H](NC(=O)[C@H](NC(=O)[C@H](CCCCN)NC(=O)[C@H]2CCCN2C(=O)[C@H](NC(=O)[C@@H](NC(=O)[C@@H](NC(=O)[C@H](NC(=O)CCCC(C)C)C(C)C)[C@@H](C)O)C(C)C)C(C)C)[C@@H](C)CC)[C@@H](C)OC(=O)[C@H](C(C)C)NC1=O [Compound 5, [Lys^8]-KF] .
Reply text: 1490

Inquiry: I would be grateful if you could share the reported CC50 for C/C=C1\NC(=O)[C@H](Cc2ccccc2)NC(=O)[C@@H](C(C)C)NC(=O)[C@@H]([C@@H](C)CC)NC(=O)[C@H](NC(=O)[C@H](NC(=O)[C@H](CCCN)NC(=O)[C@H]2CCCN2C(=O)[C@H](NC(=O)[C@@H](NC(=O)[C@@H](NC(=O)[C@H](NC(=O)Cc2ccc(C(F)(F)F)cc2)C(C)C)[C@@H](C)O)C(C)C)C(C)C)[C@@H](C)CC)[C@@H](C)OC(=O)[C@H](C(C)C)NC1=O [Compound 25, [p-CF3PhAc^14]-KF] .
Reply text: 1130

====

Tested on: HT-29
protocol.details: SRB colorimetric assay of cell growth and viability, HT-29
Format: cell-based, human
particulars: 48 hours exposure; read-out: LC50 HT-29
Where a SMILES comes first, the peptide text is derived from it. Bridges are numbered along the chain shown (N, C = ends). [ ]: non-standard residue; d: D form. The star is where a group is joined. d(aIle) = CC[C@H](C)[C@@H](N)C(=O)O; d(aThr) = C[C@@H](O)[C@@H](N)C(=O)O; Hexanoyl(5-Me) = CC(C)CCCC(=O)*; dCha = N[C@H](CC1CCCCC1)C(=O)O; Orn = NCCC[C@H](N)C(=O)O; Dhb = C/C=C(\N)C(=O)O
value.type: CC50

Inquiry: I would be grateful if you could share the reported CC50 for C/C=C1\NC(=O)[C@H](Cc2ccccc2)NC(=O)[C@@H](C(C)C)NC(=O)[C@@H](C(C)CC)NC(=O)[C@H](NC(=O)[C@H](NC(=O)[C@H](CCCN)NC(=O)[C@H]2CCCN2C(=O)[C@H](NC(=O)[C@@H](NC(=O)[C@@H](NC(=O)[C@H](NC(=O)CCC(C)CC)C(C)C)C(C)O)C(C)C)C(C)C)C(C)CC)C(C)OC(=O)[C@H](C(C)C)NC1=O (some centres unmarked) [Compound 1] .
Reply text: 498 nM

Inquiry: I would be grateful if you could share the reported CC50 for C/C=C1\NC(=O)[C@H](Cc2ccccc2)NC(=O)[C@@H](C(C)C)NC(=O)[C@@H]([C@@H](C)CC)NC(=O)[C@H](NC(=O)[C@H](NC(=O)[C@H](CCCN)NC(=O)[C@H]2CCCN2C(=O)[C@H](NC(=O)[C@@H](NC(=O)[C@H](CCC(=O)O)NC(=O)CCCC(C)C)C(C)C)C(C)C)[C@@H](C)CC)[C@@H](C)OC(=O)[C@H](C(C)C)NC1=O [Compound 56, [Glu^12, noD-Val^13]-KF] ({Hexanoyl(5-Me)}-EV[dV][dP][Orn][d(aIle)][d(aThr)][d(aIle)][dV]F[Dhb]V; ester 7-C) .
Reply text: ≥ 7110 nM

Inquiry: I would be grateful if you could share the reported CC50 for C/C=C1\NC(=O)[C@H](Cc2ccccc2)NC(=O)[C@@H](CC2CCCCC2)NC(=O)[C@@H](CC2CCCCC2)NC(=O)[C@H](NC(=O)[C@@H](CC2CCCCC2)NC(=O)[C@H](CCCN)NC(=O)[C@H]2CCCN2C(=O)[C@H](NC(=O)[C@@H](NC(=O)[C@@H](NC(=O)[C@H](NC(=O)CCCC(C)C)C(C)C)[C@@H](C)O)C(C)C)C(C)C)[C@@H](C)OC(=O)[C@H](C(C)C)NC1=O [Compound 11, [D-Cha^4, D-Cha^5, D-Cha^7]-KF] ({Hexanoyl(5-Me)}-[dV]TV[dV][dP][Orn][dCha][d(aThr)][dCha][dCha]F[Dhb]V; ester 8-C) .
Reply text: 377 nM

Inquiry: I would be grateful if you could share the reported CC50 for C/C=C1\NC(=O)[C@H](Cc2ccccc2)NC(=O)[C@@H](C(C)C)NC(=O)[C@@H]([C@@H](C)CC)NC(=O)[C@H](NC(=O)[C@H](NC(=O)[C@H](CCCN)NC(=O)[C@H]2CCCN2C(=O)[C@H](NC(=O)[C@@H](NC(=O)[C@@H](NC(=O)[C@@H](CCC(N)=O)NC(=O)CCCC(C)C)[C@@H](C)O)C(C)C)C(C)C)[C@@H](C)CC)[C@@H](C)OC(=O)[C@H](C(C)C)NC1=O [Compound 40, [D-Gln^13]-KF] .
Reply text: 3690 nM

Inquiry: I would be grateful if you could share the reported CC50 for C/C=C1\NC(=O)[C@H](Cc2ccccc2)NC(=O)[C@@H](C(C)C)NC(=O)[C@@H]([C@@H](C)CC)NC(=O)[C@H](NC(=O)[C@H](NC(=O)[C@H](CCCN)NC(=O)[C@H]2CCCN2C(=O)[C@H](NC(=O)[C@@H](NC(=O)[C@@H](NC(=O)[C@H](NC(=O)CCCC(C)C)C(C)C)[C@@H](C)O)C(C)C)C(C)C)[C@@H](C)CC)[C@H](C)OC(=O)[C@H](C(C)C)NC1=O [Compound 2, [D-Thr^6]-KF] .
Reply text: ≥ 6770 nM
